# Kd values compiled below
Molecular target: T1, full-length human Tau (Tau441; 2N4R), recombinant (human, UniProt P10636 1-758)
T1 construct: made in E. coli, His6-Smt3 tag removed; biotinylated through amines for Octet and phage work; also called r-Tau; recombinant Tau
T1 sequence (P10636 other isoform, or with tags, fused parts or gaps limits assumed): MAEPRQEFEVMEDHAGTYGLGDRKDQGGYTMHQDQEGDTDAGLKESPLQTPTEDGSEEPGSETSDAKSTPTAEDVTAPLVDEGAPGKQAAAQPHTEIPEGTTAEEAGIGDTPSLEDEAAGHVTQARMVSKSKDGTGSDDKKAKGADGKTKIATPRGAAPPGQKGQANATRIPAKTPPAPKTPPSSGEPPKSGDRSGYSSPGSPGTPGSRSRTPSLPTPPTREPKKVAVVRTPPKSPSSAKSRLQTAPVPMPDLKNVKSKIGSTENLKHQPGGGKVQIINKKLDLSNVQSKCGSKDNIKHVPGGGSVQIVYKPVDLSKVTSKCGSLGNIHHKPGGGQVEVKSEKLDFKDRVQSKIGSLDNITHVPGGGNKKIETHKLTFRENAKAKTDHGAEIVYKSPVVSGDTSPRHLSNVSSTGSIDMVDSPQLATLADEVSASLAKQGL
Assay: SPR Biacore
Response body: numeric value in pM, unit text excluded.

A selection of reference data follows.
Binder: Clone with H3_1 (antibody, V domains shown) VH: EVQLLESGGGLVQPGGSLRLSCAASGFTFSSYGMSWVRQAPGKGLEWVASISGDGGSYIHYADSVKGRFTISRDNSKNTLYLQMNSLRAEDTAVYYCAKLPFWGQGTLVTVSS VL: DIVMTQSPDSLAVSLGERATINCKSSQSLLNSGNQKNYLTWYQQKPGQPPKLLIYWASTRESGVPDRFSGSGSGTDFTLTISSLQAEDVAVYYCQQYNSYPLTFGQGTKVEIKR
Assay result: 242
//
Binder: Clone with H1_4 (antibody, V domains shown, IgG based on hu1C7.v2) VH: EVQLLESGGGLVQPGGSLRLSCAASGFRFSGPGMSWVRQAPGKGLEWVASISGDGGSYIHYADSVKGRFTISRDNSKNTLYLQMNSLRAEDTAVYYCARLPYWGQGTLVTVSS VL: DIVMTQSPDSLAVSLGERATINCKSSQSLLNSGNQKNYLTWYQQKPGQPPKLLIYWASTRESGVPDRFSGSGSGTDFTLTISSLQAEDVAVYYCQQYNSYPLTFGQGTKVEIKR
Assay result: 174

Given item Clone with L1_3 (antibody, V domains shown, IgG based on hu1C7.v2) VH: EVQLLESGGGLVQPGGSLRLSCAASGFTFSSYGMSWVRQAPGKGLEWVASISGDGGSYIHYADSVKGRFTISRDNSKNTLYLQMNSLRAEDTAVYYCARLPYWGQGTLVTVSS VL: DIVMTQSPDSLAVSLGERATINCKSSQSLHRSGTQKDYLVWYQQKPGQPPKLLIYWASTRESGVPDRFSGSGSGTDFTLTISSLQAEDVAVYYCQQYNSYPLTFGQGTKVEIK , the value recorded as its Kd is 133
